measurement protocol: Cytotoxicity assay in TGEV infected ST cells
Type: cell-based, swine
setup conditions: swine
reported endpoint: CC50 at 6 h post infection

>  <molecule smiles>
CO[C@H]1C[C@H](O[C@H]2CC[C@@]3(C)[C@H](CC[C@@H]4[C@@H]3CC[C@]3(C)[C@@H](C5=CC(=O)OC5)[C@@H](OC(C)=O)C[C@]43O)C2)O[C@@H](C)[C@@H]1O

>  <reported endpoint>
CC50 at 6 h post infection

>  <measured result>
> 10 µM

$$$$

Now let's try a different one.
Task: Consider the compound shown here: C[C@H]1O[C@@H](O[C@H]2[C@@H](O)C[C@H](O[C@H]3[C@@H](O)C[C@H](O[C@H]4CC[C@@]5(C)[C@H](CC[C@@H]6[C@@H]5CC[C@]5(C)[C@@H](C7=CC(=O)OC7)CC[C@]65O)C4)O[C@@H]3C)O[C@@H]2C)C[C@H](O)[C@@H]1O What is its recorded CC50 at 6 h post infection?
Result: > 10 µM
